Cited source: the Kinase Knowledgebase extract (Sharma et al. 2016)

MEASURED ON: EGFR (UniProt P00533)
Sequence (P00533 whole entry, looked up): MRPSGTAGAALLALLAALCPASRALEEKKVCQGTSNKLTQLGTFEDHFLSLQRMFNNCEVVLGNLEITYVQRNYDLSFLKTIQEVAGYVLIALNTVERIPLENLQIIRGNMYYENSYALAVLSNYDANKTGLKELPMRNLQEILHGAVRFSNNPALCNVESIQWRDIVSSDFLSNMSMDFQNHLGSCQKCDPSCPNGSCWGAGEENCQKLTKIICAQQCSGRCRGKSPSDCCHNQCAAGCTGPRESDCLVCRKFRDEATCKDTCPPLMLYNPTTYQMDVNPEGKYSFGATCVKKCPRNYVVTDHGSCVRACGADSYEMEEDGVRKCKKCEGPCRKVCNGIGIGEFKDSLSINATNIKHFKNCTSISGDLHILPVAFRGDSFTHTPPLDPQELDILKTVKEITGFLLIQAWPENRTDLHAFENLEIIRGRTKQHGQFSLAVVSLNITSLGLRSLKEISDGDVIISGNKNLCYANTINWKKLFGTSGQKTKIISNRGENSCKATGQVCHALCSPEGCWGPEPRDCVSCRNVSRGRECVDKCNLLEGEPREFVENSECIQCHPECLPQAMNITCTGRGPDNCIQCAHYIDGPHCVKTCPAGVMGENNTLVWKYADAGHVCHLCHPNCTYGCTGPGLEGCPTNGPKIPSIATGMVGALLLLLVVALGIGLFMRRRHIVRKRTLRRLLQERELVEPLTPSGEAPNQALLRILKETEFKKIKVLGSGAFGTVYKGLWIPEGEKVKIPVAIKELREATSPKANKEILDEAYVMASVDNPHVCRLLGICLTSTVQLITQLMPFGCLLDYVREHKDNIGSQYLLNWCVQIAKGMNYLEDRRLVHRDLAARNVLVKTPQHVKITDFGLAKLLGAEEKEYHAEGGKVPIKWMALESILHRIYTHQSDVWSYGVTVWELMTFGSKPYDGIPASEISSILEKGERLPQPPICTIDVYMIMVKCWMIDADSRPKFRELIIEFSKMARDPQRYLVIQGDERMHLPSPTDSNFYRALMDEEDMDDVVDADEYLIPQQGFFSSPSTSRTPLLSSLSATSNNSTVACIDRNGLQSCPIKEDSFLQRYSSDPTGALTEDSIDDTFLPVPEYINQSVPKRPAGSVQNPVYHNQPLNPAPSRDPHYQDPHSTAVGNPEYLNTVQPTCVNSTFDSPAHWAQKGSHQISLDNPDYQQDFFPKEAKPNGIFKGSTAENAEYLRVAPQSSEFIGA
MEASURE NAME: IC50 (nM)

For orientation, consider the following solved cases.
> print(dat)
                                   molecule  numeric.readout
1  OCCN(CCO)CCCNc1cc2ncnc(Nc3cccc(Br)c3)c2cn1              1.2
2            Fc1ccc2c(Nc3cccc(Br)c3)ncnc2n1              692
3    Cc1cccc(Nc2ncnc3cc(NCCCCN(C)C)ncc23)c1              5.5
4      CN(CCO)c1cc2ncnc(Nc3cccc(Br)c3)c2cn1              2.6
5  Cc1cccc(Nc2ncnc3cc(NCCCN4CCN(C)CC4)ncc23)c1              5.6

I: Nc1cc2ncnc(Nc3ccc(Br)cc3)c2cn1
II: OCCNc1cc2ncnc(Nc3cccc(Br)c3)c2cn1
III: CN(C)CCCCNc1cc2ncnc(Nc3cccc(Br)c3)c2cn1
IV: CN(CC(=O)O)c1cc2ncnc(Nc3cccc(Br)c3)c2cn1
Please list these molecules in decreasing order of IC50. Reply: labels, ordered per the request.
I, IV, III, II
(I: 25.7 nM, IV: 16.2 nM, III: 7.4 nM, II: 0.25 nM)

P: Brc1cccc(Nc2ncnc3cc(NCCCCN4CCOCC4)ncc23)c1
Q: Brc1cccc(Nc2ncnc3cnc(NCCN4CCOCC4)nc23)c1
R: Brc1cccc(Nc2ncnc3cnc(NCCc4c[nH]cn4)nc23)c1
Please list these molecules in decreasing order of IC50. Reply: labels, ordered per the request.
P, Q, R

* * *

Form: system (UniProt:P00533), quantity (IC50), values below.
MEASURE NAME: IC50 (nM)

For orientation, consider the following solved cases.
> print(dat)
                                   compound  numeric.readout
1  CN(CC(O)CO)c1cc2ncnc(Nc3cccc(Br)c3)c2cn1 (centres undefined)              3.2
2  CN1CCN(CCCNc2cc3ncnc(Nc4cccc(Br)c4)c3cn2)CC1                5

a: CNc1ccc2ncnc(Nc3cccc(Br)c3)c2n1
b: OCCN(CCO)c1cc2ncnc(Nc3cccc(Br)c3)c2cn1
Hi team, can someone confirm which has the larger IC50: a or b ? Thanks. // respond with label for picked entry
b
(b: 12 nM, a: 3.2 nM)
